PROTOCOL_TEXT: Cmax in guinea pig at 20 mg/kg, po
Type: ADME, organism-based, Cavia porcellus
CONDITION_SET: in vivo
MEASURED_ENDPOINT: Cmax (ng/mL)

(P) O=C(Nc1ccc(-c2nc3cc(C(F)(F)F)ccc3[nH]2)cc1)c1cc(CNC(=O)C2(C(F)(F)F)CC2)ccc1Cl
(Q) O=C(Nc1ccc(-c2nc3cc(C(F)(F)F)ccc3[nH]2)cc1)c1cc(CNC(=O)C2(C(F)(F)F)CCC2)ccc1Cl
Ask: Returns: the argument ( P or Q ) having the larger Cmax. Your choice should be expressed through its label.
Reply: P

----------
PROTOCOL_TEXT: Clearance in guinea pig at 2 mg/kg, iv
Assay type: ADME, organism-based, Cavia porcellus
CONDITION_SET: in vivo
MEASURED_ENDPOINT: clearance (mL/min/kg)

(A) O=C(Nc1ccc(-c2nc3cc(C(F)(F)F)ccc3[nH]2)cc1)c1cc(CNC(=O)C2(C(F)(F)F)CC2)ccc1Cl
(B) O=C(Nc1ccc(-c2nc3cc(C(F)(F)F)ccc3[nH]2)cc1)c1cc(CNC(=O)C2(C(F)(F)F)CCC2)ccc1Cl
Ask: Out of A and B , name the one with the higher clearance. // caller expects the label of the chosen entry
Reply: B

----------
PROTOCOL_TEXT: Half life in guinea pig at 2 mg/kg, iv
Type: ADME, organism-based, Cavia porcellus
CONDITION_SET: in vivo
MEASURED_ENDPOINT: half-life (h)

(A) O=C(Nc1ccc(-c2nc3cc(C(F)(F)F)ccc3[nH]2)cc1)c1cc(CNC(=O)C2(C(F)(F)F)CCC2)ccc1Cl
(B) O=C(Nc1ccc(-c2nc3cc(C(F)(F)F)ccc3[nH]2)cc1)c1cc(CNC(=O)C2(C(F)(F)F)CC2)ccc1Cl
Ask: Between item A and item B , which reported half-life is smaller? Reply with the label of the item you choose.
Reply: B
(B: 3.9 h, A: 5.6 h)

----------
PROTOCOL_TEXT: Initial plasma concentration in guinea pig at 2 mg/kg, iv
Type: ADME, organism-based, Cavia porcellus
MEASURED_ENDPOINT: C0 (µg/mL)

CHEMICAL_SMILES: O=C(Nc1ccc(-c2nc3cc(C(F)(F)F)ccc3[nH]2)cc1)c1cc(CNC(=O)C2(C(F)(F)F)CC2)ccc1Cl
C0 / µg/mL: 0.878
//
CHEMICAL_SMILES: O=C(Nc1ccc(-c2nc3cc(C(F)(F)F)ccc3[nH]2)cc1)c1cc(CNC(=O)C2(C(F)(F)F)CCC2)ccc1Cl
C0 / µg/mL: 0.733

----------
PROTOCOL_TEXT: Metabolic stability in guinea pig liver microsome assessed as intrinsic clearance
Type: ADME, Cavia porcellus
CONDITION_SET: liver microsomes, read-out: CLH
MEASURED_ENDPOINT: microsomal CLint (µL/min/mg)

CHEMICAL_SMILES: O=C(Nc1ccc(-c2nc3cc(C(F)(F)F)ccc3[nH]2)cc1)c1cc(CNC(=O)C2(C(F)(F)F)CCC2)ccc1Cl
MEASUREMENT_UNIT: µL/min/mg
microsomal CLint: 163

CHEMICAL_SMILES: CC(C)(C(=O)NCc1ccc(Cl)c(C(=O)Nc2ccc(Cc3nc4cc(C(F)(F)F)ccc4[nH]3)cc2)c1)C(F)(F)F
MEASUREMENT_UNIT: µL/min/mg
microsomal CLint: 28.2

(1) CC(C)(C)C(=O)NCc1ccc(Cl)c(C(=O)Nc2ccc(-c3nc4cc(C(F)(F)F)ccc4[nH]3)cc2)c1
(2) CC(C)(C(=O)NCc1ccc(Cl)c(C(=O)Nc2ccc(-c3nc4cc(C(F)(F)F)ccc4[nH]3)cc2)c1)C(F)(F)F
Ask: Select one: 1 or 2 . Criterion: greater recorded microsomal CLint. I would appreciate it if you answered with the label of your choice.
Reply: 1
